# targetEntity: KRAS(G12D)/SOS1 (Homo sapiens, UniProt P01116, G12D)
# Sequence (P01116 1-188 isoform P01116-2 G12D): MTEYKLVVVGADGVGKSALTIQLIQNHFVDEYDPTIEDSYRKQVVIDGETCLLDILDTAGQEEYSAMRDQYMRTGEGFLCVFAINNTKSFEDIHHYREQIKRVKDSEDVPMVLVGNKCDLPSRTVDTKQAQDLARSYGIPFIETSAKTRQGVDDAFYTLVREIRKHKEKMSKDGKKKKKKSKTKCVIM
# measurementDescription: KRAS(G12D)/SOS1 homogeneous time-resolved fluorescence (HTRF) assay
# recordedConditions: absence of GTP, 4° C. for 3 hr
Structures can show the parent of a compound that is named as a salt.
Listing of recorded IC50 by entry.

CN1C[C@@H](N2CCC(C(=O)NCCOCCOc3ccc4c(c3)C(=O)N(C3CCC(=O)NC3=O)C4=O)CC2)C[C@H]1COc1nc(N2CC3CCC(C2)N3)c2cnc(-c3cccc4cccc(Cl)c34)c(F)c2n1 (stereo partly drawn) [Compound 11, formate]
100 to 1000 nM
C#Cc1cccc2cc(O)cc(-c3ncc4c(N5CC6CCC(C5)N6)nc(OCC5(CN6CCN(CC7CCN(c8ccc(NC9CCC(=O)NC9=O)cc8)CC7)CC6)CC5)nc4c3F)c12 (stereo not drawn)
< 100 nM
CN1CC(N2CCC(C(=O)NCCOCCOc3ccc4c(c3)C(=O)N(C3CCC(=O)NC3=O)C4=O)CC2)C[C@@H]1COc1nc(N2CC3CCC(C2)N3)c2cnc(-c3cc(O)cc4ccccc34)c(F)c2n1 (stereo partly drawn)
< 100 nM
C#Cc1c(F)ccc2cc(O)cc(-c3ncc4c(N5CC6CCC(C5)N6)nc(OCC5(CN6CCC(CN7CCC(c8ccc9c(c8)CN(C8CCC(=O)NC8=O)C9=O)CC7)CC6)CC5)nc4c3F)c12 (stereo not drawn)
< 100 nM
CN1C[C@@H](N2CCC(C(=O)Nc3ccc4c(c3)C(=O)N(C3CCC(=O)NC3=O)C4=O)CC2)C[C@H]1COc1nc(N2CC3CCC(C2)N3)c2cnc(-c3cccc4ccccc34)c(F)c2n1 (stereo partly drawn) [Compound 25, formate]
< 100 nM
CN1C[C@@H](N2CCC(C(=O)N3CCN(c4ccc5c(c4)C(=O)N(C4CCC(=O)NC4=O)C5=O)CC3)CC2)C[C@H]1COc1nc(N2CC3CCC(C2)N3)c2cnc(-c3cccc4ccccc34)c(F)c2n1 (stereo partly drawn) [Compound 19, formate]
100 to 1000 nM
C#Cc1cccc2cccc(-c3ncc4c(N5CC6CCC(C5)N6)nc(OCC5(CN6CCN(Cc7ccc8c(c7)C(=O)N(C7CCC(=O)NC7=O)C8=O)CC6)CC5)nc4c3F)c12 (stereo not drawn) [Compound 28, formate]
< 100 nM
C#Cc1cccc2cccc(-c3ncc4c(N5CC6CCC(C5)N6)nc(OCCN5CCN(CC6CCN(c7ccc8c(c7)C(=O)N(C7CCC(=O)NC7=O)C8=O)CC6)CC5)nc4c3F)c12 (stereo not drawn) [Compound 1, hydrochloride]
100 to 1000 nM
O=C1CCC(N2C(=O)c3ccc(N4CCC(C(=O)N5CCN(CC6(COc7nc(N8CC9CCC(C8)N9)c8cnc(-c9cc(O)cc%10ccccc9%10)c(F)c8n7)CC6)CC5)CC4)cc3C2=O)C(=O)N1 (stereo not drawn)
< 100 nM
CN1C[C@H](C2CCC(C(=O)NCCOc3ccc4c(c3)C(=O)N(C3CCC(=O)NC3=O)C4=O)CC2)C[C@@H]1COc1nc(N2CC3CCC(C2)N3)c2cnc(-c3cc(O)cc4ccccc34)c(F)c2n1 (stereo partly drawn)
< 100 nM

Specify measured IC50 for C#Cc1c(F)ccc2cc(O)cc(-c3nc(OC)c4c(N5CCN(C(=O)CC)[C@H](CC#N)C5)nc(OCC5(CN6CCN(CC7CCN(c8ccc9c(c8)CN(C8CCC(=O)NC8=O)C9=O)CC7)CC6)CC5)nc4c3F)c12 (stereo partly drawn) .
< 100 nM

Specify measured IC50 for C#Cc1cccc2cccc(-c3ncc4c(N5CC6CCC(C5)N6)nc(OCCN5CCN(C(=O)C6CCN(c7ccc8c(c7)CN(C7CCC(=O)NC7=O)C8=O)CC6)CC5)nc4c3F)c12 (stereo not drawn) [Compound 17, formate] .
< 100 nM

Specify measured IC50 for C#Cc1cccc2cccc(-c3ncc4c(N5CC6CCC(C5)N6)nc(OC[C@H]5C[C@@H](N6CCN(C[C@H]7CC[C@H](Nc8ccc9c(c8)C(=O)N(C8CCC(=O)NC8=O)C9=O)CC7)CC6)CN5C)nc4c3F)c12 (stereo partly drawn) .
< 100 nM

Specify measured IC50 for C#Cc1c(F)ccc2cc(O)cc(-c3ncc4c(N5CC6CCC(C5)N6C(=O)CC#N)nc(OCC5(CN6CCN(CC7CCN(c8ccc9c(c8)CN(C8CCC(=O)NC8=O)C9=O)CC7)CC6)CC5)nc4c3F)c12 (stereo not drawn) .
< 100 nM

Specify measured IC50 for C#Cc1c(F)ccc2cc(O)cc(-c3ncc4c(N5CC6CCC(C5)N6)nc(OCC5(CN6CCN(Cc7ccc8c(c7)C(=O)N(C7CCC(=O)NC7=O)C8=O)CC6)CC5)nc4c3F)c12 (stereo not drawn) .
< 100 nM

Specify measured IC50 for C#Cc1c(F)ccc2cc(O)cc(-c3ncc4c(N5CC6CCC(C5)N6)nc(OCC5(CN6CCC7(CC6)CCN(c6ccc8c(c6)CN(C6CCC(=O)NC6=O)C8=O)CC7)CC5)nc4c3F)c12 (stereo not drawn) .
< 100 nM

Specify measured IC50 for Cc1ncsc1-c1ccc(CNC(=O)[C@@H]2C[C@@H](O)CN2C(=O)[C@@H](NC(=O)C2CCN([C@H]3C[C@@H](COc4nc(N5CC6CCC(C5)N6)c5cnc(-c6cccc7cccc(Cl)c67)c(F)c5n4)N(C)C3)CC2)C(C)(C)C)cc1 [Compound 24, formate] .
100 to 1000 nM

Specify measured IC50 for CN1C[C@H](N2CCN(C(=O)C3CCN(c4ccc5c(c4)C(=O)N(C4CCC(=O)NC4=O)C5=O)CC3)CC2)C[C@@H]1COc1nc(N2CC3CCC(C2)N3)c2cnc(-c3cc(O)cc4ccccc34)c(F)c2n1 (stereo partly drawn) .
< 100 nM
